- experimentDescription: Heparin binding activity by liquid chromatography on Hi Trap Heparin HP column (NaCl elution)
- runParameters: step gradient 500-1000 mM NaCl in 10 mM NaH2PO4 pH 7
assayMetric: [NaCl] for elution (mM)

Recorded results for 2 sequences are shown here.
- sequenceText: "RKRAALRARKRAARARKRAARR (RKRAARARKRAARARKRAARR; listed as Homo sapiens) [ST100,083]"
  [NaCl] for elution [mM]: 1100
- sequenceText: "RKKAARARKKAARARKKAARRLGYVVSDGRGDYP (listed as Homo sapiens) [ST100,081]"
  [NaCl] for elution [mM]: 1000

I: PSQSSHPPLSTA (listed as Homo sapiens) [ST100,059]
II: RRGRAARRGRAARRGRAAKKKPSQSSHPPLSTA (listed as Homo sapiens) [ST100,073]
Between I and II , which one has the lower reported [NaCl] for elution value? Write down the label attached to your selection.
I
